Assay: RPMI8226 myeloma cell viability, profiling panel, resazurin fluorescence, basal, 24 h, PK04 Diversity Set (AID 1180);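 note: RPMI8826 multiple myeloma cell line at 5000 cells per well; test concentration not given here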
Conditions: higher = more signal
Kind request: treat -0.8 as inclusive, so z-score at -0.8 or higher is y, anything lower is n.

compound	category-label
COc1ccc(CCNC(=O)[C@@H]2c3ccccc3C(=O)N(Cc3ccc(OC(F)(F)F)cc3)[C@H]2c2ccc(CO)cc2)cc1	y
Cc1ccc(S[C@]2(C(=O)O)CC(=O)N(C3Cc4ccccc4C3)[C@@H]2c2ccc(CO)cc2I)cc1	n
COC(=O)c1c(CC[C@@H](CO)NC(=O)N[C@@H](Cc2ccccc2)Cn2cc(C3(O)CCCCC3)nn2)oc(C(C)=O)c1C(=O)OC	y
O=C(CS)NCCCCCCNC(=O)[C@H]1C[C@H]2C(=O)N3CCC[C@H]3C(=O)N2[C@H]1c1cccc(OCCO)c1	n
CC(C)c1ccc(NN2C(C(O)c3c(F)cccc3Cl)C=CC3C(=O)N(c4ccccc4)C(=O)C32)cc1 (stereo not drawn)	n
O=C/C=C/c1ccc2c(c1)OCO2	y
COCCOC(=O)N1C(=O)[C@@]2(c3cc(C#CCC(C(=O)OC)C(=O)OC)ccc31)[C@H](c1ccccc1OCCO)N1[C@H](c3ccccc3)[C@H](c3ccccc3)OC(=O)[C@H]1[C@@H]2C(=O)N1CCc2cc(OC)c(OC)cc2C1	y
